- target or test system: full length NS3/4a (Hepatitis C virus genotype 1b (isolate BK) (HCV), UniProt P26663)
- Sequence (P26663 1027-1657): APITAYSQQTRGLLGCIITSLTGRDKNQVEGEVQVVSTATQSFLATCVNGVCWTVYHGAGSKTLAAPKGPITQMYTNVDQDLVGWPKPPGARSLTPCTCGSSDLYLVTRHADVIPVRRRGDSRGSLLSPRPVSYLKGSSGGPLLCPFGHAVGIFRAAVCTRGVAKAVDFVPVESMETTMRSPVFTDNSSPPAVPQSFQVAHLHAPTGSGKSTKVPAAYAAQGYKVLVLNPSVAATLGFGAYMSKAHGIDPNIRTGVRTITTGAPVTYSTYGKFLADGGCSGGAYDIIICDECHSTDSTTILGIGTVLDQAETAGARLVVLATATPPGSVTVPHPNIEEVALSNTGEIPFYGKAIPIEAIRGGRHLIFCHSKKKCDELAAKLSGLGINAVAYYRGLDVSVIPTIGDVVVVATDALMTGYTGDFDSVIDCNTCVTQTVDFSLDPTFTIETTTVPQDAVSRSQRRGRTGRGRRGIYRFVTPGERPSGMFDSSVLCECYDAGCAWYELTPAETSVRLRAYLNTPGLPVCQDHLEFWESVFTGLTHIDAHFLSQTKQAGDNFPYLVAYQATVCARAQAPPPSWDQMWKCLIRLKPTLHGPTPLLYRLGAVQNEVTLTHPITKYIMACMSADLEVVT
- assay overview: NS3 Protease Assay (Example A), FRET-based
- Format: biochemical
- condition context: read-out: IC50 against the protease activity of the full length NS3/4a
parameter: IC50

These recorded examples may help you get a feel for the data.
N#Cc1ccc(C(=O)c2c(Cl)ccc([C@H](N)C3CC3)c2F)nc1 : < 1000 nM
Nc1cnc(C(=O)c2c(Cl)ccc([C@H](N)C3CC3)c2F)cn1 : < 1000 nM
CC[C@@H](N[C@H](C)CC(N)=O)c1ccc(Cl)c(C(=O)c2ccc(N)nc2)c1F : 1000 to 5000 nM

Which IC50 is reported for this molecule? `CC[C@@H](N)c1ccc(Cl)c(C(=O)c2ccc(=O)[nH]c2)c1F`
1000 to 5000 nM

Same question for `CC[C@@H](NCCC(N)=O)c1ccc(Cl)c(C(=O)c2ccccc2)c1F` please.
< 1000 nM
